Origin of values: patent US8778974B2

Target: hα7-wt nAChR-expressing GH4Cl cells (Homo sapiens)
Construct: expressed in transfected cells
Sequence (P36544 23-502): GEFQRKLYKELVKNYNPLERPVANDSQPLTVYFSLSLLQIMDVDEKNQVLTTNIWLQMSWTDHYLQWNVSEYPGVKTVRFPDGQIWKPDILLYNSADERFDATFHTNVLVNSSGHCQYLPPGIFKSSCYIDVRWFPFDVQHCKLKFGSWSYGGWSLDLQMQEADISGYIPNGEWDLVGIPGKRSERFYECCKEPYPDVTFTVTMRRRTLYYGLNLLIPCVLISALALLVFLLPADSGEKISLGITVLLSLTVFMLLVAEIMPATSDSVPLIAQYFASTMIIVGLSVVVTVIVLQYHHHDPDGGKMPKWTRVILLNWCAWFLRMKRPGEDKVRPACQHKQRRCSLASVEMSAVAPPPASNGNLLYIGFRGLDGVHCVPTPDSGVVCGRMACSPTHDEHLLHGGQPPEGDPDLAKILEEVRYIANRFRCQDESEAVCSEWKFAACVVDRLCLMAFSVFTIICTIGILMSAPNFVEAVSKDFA
Assay: Patch-clamp current recording (whole-cell), potentiation of choline 1 mM response, PAM type
Assay type: cell-based
Set-up: key: Type 0 compounds minimally enhance the effect size of the current elicited by 1 mM choline.; Type 1 compounds enhance the effect size of the current elicited by 1 mM choline but minimally alter the kinetics of the receptor.; Type 2 compounds enhance the effect size of the current elicited by 1 mM choline while reducing the rate and/or the extent of desensitization.; Type 3 compounds enhance the effect size of the current elicited by 1 mM choline. When tested at higher concentrations up to 10 μM they completely inhibit desensitization, in particular a 1 mM choline application of 250 milliseconds.; Type 4 compounds allow for an initial desensitization of the receptor followed by a re-opening of the receptor during agonist application
Details: patch-clamp current recording, 1 mM choline
Please provide measured Pam type for the entries that follow.
Answers are plain numbers.

Consider the following items and state reported Pam type for each.
1. Cc1cc(-n2nc(Nc3ccc(F)c(C(F)(F)F)c3)nc2CCCF)ccn1
2. CN(C)C(=O)CCc1nc(Nc2ccc(F)c(F)c2)nn1-c1ccccc1Cl
3. CC[C@H](O)Cc1nc(Nc2cccc(Cl)c2)nn1-c1cc(C)nc(C)c1
4. Cc1cc(-n2nc(Nc3cccc(Cl)c3F)nc2CC(=O)NCC2CC2)cc(C)n1

[A]
1: 0; 2: 3; 3: 2; 4: 2

----------
Please provide measured melting point for the entries that follow.
Don't forget the unit after the number, please.

Use the examples below as a reference point.
CC[C@H](O)Cc1nc(Nc2cccc(Cl)c2)nn1-c1cc(C)nc(C)c1 | 154.6 °C
Cc1cc(-n2nc(Nc3ccc(F)c(F)c3)nc2C[C@@H](C)O)cc(C)n1 | 225.1 °C
Cc1cc(-n2nc(Nc3ccc4c(c3)OC(F)(F)O4)nc2CC(=O)NCC2CC2)c(C)cn1 | 227.2 °C
Cc1cc(-n2nc(Nc3cc(F)c(F)c(F)c3)nc2CC(=O)NC2CCC2)cc(C)n1 | 291.9 °C

Consider the following items and state reported melting point for each.
1. Cc1cc(-n2nc(Nc3ccc(F)c(F)c3)nc2CC(=O)NC2CCC2)c(C)cn1
2. COc1ccc(-n2nc(Nc3cc(OC)cc(C(F)(F)F)c3)nc2C[C@H](C)O)cc1
3. Cc1cc(-n2nc(Nc3cccc(Cl)c3)nc2C[C@H](C)O)ccn1
4. COc1cccc(-n2nc(Nc3ccc(F)c(C(F)(F)F)c3)nc2CCC(=O)N(C)C)c1
5. CNC(=O)Cc1nc(Nc2cc(F)cc(C(F)(F)F)c2)nn1-c1cc(C)nc(C)c1

[A]
244.1 °C
135.4 °C
185 °C
173.6 °C
286.2 °C

Consider the following items and state reported melting point for each.
1. CC[C@H](O)Cc1nc(Nc2cccc(Cl)c2F)nn1-c1ccnc(C)c1
2. COc1ncccc1-n1nc(Nc2cccc(OC(F)(F)F)c2)nc1CCC(=O)N(C)C

[A]
1. 127.9 °C
2. 166.7 °C

Consider the following items and state reported melting point for each.
1. COc1ccc(-n2nc(Nc3ccc(F)c(F)c3)nc2C[C@H](C)O)cc1
2. CC[C@H](O)Cc1nc(Nc2ccc(F)c(F)c2)nn1-c1ccc(OC)cc1
3. CC[C@H](O)Cc1nc(Nc2cccc(Cl)c2)nn1-c1ccnc(C)c1
4. CCNC(=O)Cc1nc(Nc2cc(F)c(F)c(F)c2)nn1-c1cc(C)nc(C)c1

[A]
181.4 °C
117.6 °C
126.7 °C
296.1 °C

Consider the following items and state reported melting point for each.
1. CCNC(=O)Cc1nc(Nc2cc(Cl)cc(OC)c2)nn1-c1cc(C)nc(C)c1
2. COc1cc(Nc2nc(C[C@H](C)O)n(-c3ccnc(C)c3)n2)cc(C(F)(F)F)c1
3. CCNC(=O)Cc1nc(Nc2cccc(OC(F)(F)F)c2)nn1-c1cc(C)nc(C)c1
4. Cc1cc(-n2nc(Nc3cc(F)cc(C(F)(F)F)c3)nc2CC(=O)NC2CCC2)cc(C)n1

[A]
["254 °C", "196.3 °C", "277.5 °C", "291.8 °C"]

Consider the following items and state reported melting point for each.
1. CNC(=O)Cc1nc(Nc2ccc(OC)c(C(F)(F)F)c2)nn1-c1cc(C)nc(C)c1
2. Cc1cncc(-n2nc(Nc3ccc4c(c3)OC(F)(F)O4)nc2CCC(=O)N(C)C)c1
3. COc1cccc(-n2nc(Nc3cccc(OC(F)(F)F)c3)nc2CCC(=O)N(C)C)c1
4. OCCCc1nc(Nc2ccc(F)c(C(F)(F)F)c2)nn1-c1ccncc1Cl
5. CCNC(=O)Cc1nc(Nc2ccc(F)c(F)c2F)nn1-c1cc(C)nc(C)c1
6. CNC(=O)Cc1nc(Nc2ccc(F)c(C(F)(F)F)c2)nn1-c1cc(C)nc(C)c1
7. Cc1cc(-n2nc(Nc3cccc(C(F)(F)F)c3)nc2CC(=O)NC2CC2)cc(C)n1
8. Cc1cc(-n2nc(Nc3ccc(F)c(C(F)(F)F)c3)nc2CCCO)ccn1

[A]
1. 263 °C
2. 141.1 °C
3. 133.5 °C
4. 152.9 °C
5. 241.5 °C
6. 264.2 °C
7. 270 °C
8. 197.6 °C

Consider the following items and state reported melting point for each.
1. Cc1cc(-n2nc(Nc3ccc4c(c3)OC(F)(F)O4)nc2CC(=O)NC2CC2)cc(C)n1
2. Cc1cc(-n2nc(Nc3ccc4c(c3)OC(F)(F)O4)nc2CCC(=O)N(C)C)cc(C)n1
3. Cc1cc(-n2nc(Nc3ccc(F)c(C(F)(F)F)c3)nc2CC(C)O)ccn1 (stereo not drawn)
4. CCNC(=O)Cc1nc(Nc2ccc3c(c2)OC(F)(F)O3)nn1-c1cc(C)nc(C)c1
5. Cc1cc(-n2nc(Nc3ccc(F)c(Cl)c3)nc2CC(=O)NC2CC2)cc(C)n1

[A]
1. 292.6 °C
2. 178 °C
3. 192.7 °C
4. 280.9 °C
5. 287.4 °C

Consider the following items and state reported melting point for each.
1. Cc1cc(-n2nc(Nc3cc(F)cc(F)c3)nc2CC(=O)NC2CCC2)cc(C)n1
2. CCNC(=O)Cc1nc(Nc2cccc(C(F)(F)F)c2)nn1-c1cc(C)nc(C)c1
3. CCNC(=O)Cc1nc(Nc2cc(F)cc(F)c2)nn1-c1cc(C)nc(C)c1
4. Cc1cc(-n2nc(Nc3ccc(F)c(C(F)(F)F)c3)nc2CCC(=O)N(C)C)cc(C)n1

[A]
["286.7 °C", "283.6 °C", "289 °C", "184 °C"]
